Cited source for all entries: the supplement of paper PMC9732359

Experiment: protein stability index of a GFP-peptide fusion (yeast GPS) (PSI 1-4); higher = more stable; sorted into four equal gates, so the index is relative within each strain
Settings: doa10∆
MEASURED PARAMETER: protein stability index

Here's what some known entries look like.
[
  {
    "PRIMARY SEQUENCE": "TDLRFQSSAIGALQESV [HHT1]",
    "protein stability index": 1.32
  },
  {
    "PRIMARY SEQUENCE": "QKYWESMRIQILRRQAI [GAL11]",
    "protein stability index": 1.34
  }
]

Can you give me protein stability index for all of these, one by one?
1. YQNQFVEFCRNINSTDK [YML103C/NUP188]
2. GCNNLIKNISNRVGLTL [ARP9]
3. LTFMTCNSLHIPQDFEN [ESC2]

1: 3.04; 2: 3.28; 3: 2.17

Please supply protein stability index for each of the following items, keeping them in order.
1. ECENEIKTKQMSLKKCQ [SMC2]
2. KVEIKKVNSRDDSFFNE [PRP28]
3. ERQQDELENFLDNFETK [YJL041W/NSP1]

[2.92, 3.16, 3.23]

List protein stability index for every entry below, keeping the order given.
1. GTPLQNNLHELWALLNF [ISW2]
2. LQDLISVYGLDDISRQV [ROX3]
3. TVSPDFVAATTNAGYTI [FAS1]
4. VSNENKKNIDYQNRSTR [RRI1]
5. AKKRRPAAKGKNLSFKR [RRP6]
6. HKPNEGRTPNISNGTIN [SIR4]

[2.76, 2.69, 2.71, 3.13, 2.9, 2.92]

====

Experiment: protein stability index of a GFP-peptide fusion (yeast GPS) (PSI 1-4); higher = more stable; sorted into four equal gates, so the index is relative within each strain
Conditions: ubr1∆
Give measured protein stability index for each item. Keep answers brief.
Answers are plain numbers.

Reference set (5 entries):
[
  {
    "PRIMARY SEQUENCE": "ENDQQDNEEWMNDVINT [LIN1]",
    "protein stability index": 2.98
  },
  {
    "PRIMARY SEQUENCE": "RKFKSRRCDDMLYYIQN [POP4]",
    "protein stability index": 2.85
  },
  {
    "PRIMARY SEQUENCE": "THAQRTGLSQIPNRRFT [PRP8]",
    "protein stability index": 2.88
  },
  {
    "PRIMARY SEQUENCE": "DVLKVNTLVRPNGTKKA [RPL25]",
    "protein stability index": 3.26
  },
  {
    "PRIMARY SEQUENCE": "YLERTLDTFIKIDGNPD [PRE5]",
    "protein stability index": 3.3
  }
]

Need protein stability index for each of these sequences.
1. GSLKLPNCPRPNMSICI [RPL1A]
2. APKWYPSEDVAALKKTR [RPL6A]
3. MACNFQFPEIAYPGKLI [CSL4]
4. VVAKKDFNQAKHEEIDT [RPS10A]
5. LKIYYKEEFSSDESIER [RRI2]
6. LGFTPGELRSYLKGATG [FAS1]
7. QELKADSPFSLICQNNL [SRP72]
8. DELILEAKERYTDRDQD [NNF1]

2.98
2.53
2.62
3.09
2.9
3.41
2.85
3.52

// for each sequence in input: emit protein stability index
1. KSYYLNTVMLQGIFKNS [AAR2]
2. EIGITQQRIVSAYEASM [RRP4]

[1.24, 2.85]

====

Assay: protein stability index of a GFP-peptide fusion (yeast GPS) (PSI 1-4); higher = more stable; sorted into four equal gates, so the index is relative within each strain
Settings: san1∆
Assignment: determine reported protein stability index for the given sequences.
Answers are plain numbers.

[
  {
    "PRIMARY SEQUENCE": "FSSLAISEINFLHESSF [CSI1]",
    "protein stability index": 2.26
  }
]

Provide the reported protein stability index of each entry below, same order.
1. YHGNECEINYYEILLKI [SRB8]
2. NLRLLVEENRVRYTTSV [DLS1]
3. GKTIVVKDLGQGLKLAK [SMC3]
4. LFPNELYNVMGINKKKL [RPC31]
5. MLMSKIGDVDGLIVNPV [POP5]
6. INKMVGNRYLEKRLNLR [RPL21A]

[2.24, 2.08, 2.45, 3.29, 2.47, 2.92]

====

Experiment: protein stability index of a GFP-peptide fusion (yeast GPS) (PSI 1-4); higher = more stable; sorted into four equal gates, so the index is relative within each strain
Settings: ubr1∆
Answer Condition not met if protein stability index is under 3, and Condition met if it is 3 or more.

Observe how each entry below is paired with its result.
[
  {
    "PRIMARY SEQUENCE": "NNRSVSMQTIAETIILS [SRB5]",
    "ASSIGNED CATEGORY": "Condition not met"
  },
  {
    "PRIMARY SEQUENCE": "ITATLVGTVRCEEEKKT [CSL4]",
    "ASSIGNED CATEGORY": "Condition not met"
  },
  {
    "PRIMARY SEQUENCE": "LKDFNTERVVEIGPSPT [FAS2]",
    "ASSIGNED CATEGORY": "Condition not met"
  },
  {
    "PRIMARY SEQUENCE": "SIMPDLYFYRDPEEVEQ [RPS0A]",
    "ASSIGNED CATEGORY": "Condition not met"
  },
  {
    "PRIMARY SEQUENCE": "VFLEFSLNFIPITASTS [YML103C/NUP188]",
    "ASSIGNED CATEGORY": "Condition not met"
  }
]

Next, consider the following sequence.
Answer whether protein stability index of QQMHEVRKELRGRAVVL [RPP0] is greater than or equal to 3.
Condition not met

====

Test: protein stability index of a GFP-peptide fusion (yeast GPS) (PSI 1-4); higher = more stable; sorted into four equal gates, so the index is relative within each strain
Conditions: doa10∆
Could you label it MET if measured protein stability index is 2 or higher, and NOT MET otherwise?

[
  {
    "PRIMARY SEQUENCE": "VGSENVECTISILRKSS [SNF12]",
    "ASSIGNED CATEGORY": "NOT MET"
  }
]

Now for a further sequence.
Is reported protein stability index greater than or equal to 2 here: APPQTRKFQPPPGFKRK [SMB1]
MET

====

Test: protein stability index of a GFP-peptide fusion (yeast GPS) (PSI 1-4); higher = more stable; sorted into four equal gates, so the index is relative within each strain
Settings: san1∆
Think of 3 as a floor: if protein stability index stands on it or above, it is true (1); beneath it, false (0).

Observe how each entry below is paired with its result.
[
  {
    "PRIMARY SEQUENCE": "AILLIINLTQTYGISVV [NUT1]",
    "ASSIGNED CATEGORY": "false (0)"
  },
  {
    "PRIMARY SEQUENCE": "TNLGQPHSLATKTTGKC [RPS2]",
    "ASSIGNED CATEGORY": "false (0)"
  },
  {
    "PRIMARY SEQUENCE": "DPVSGAILVPMTVNDQP [YJR042W/NUP85]",
    "ASSIGNED CATEGORY": "false (0)"
  },
  {
    "PRIMARY SEQUENCE": "KRKEELVSTLTTGISST [SMC2]",
    "ASSIGNED CATEGORY": "false (0)"
  },
  {
    "PRIMARY SEQUENCE": "IQCQIDKLYIHFVQEEP [RGR1]",
    "ASSIGNED CATEGORY": "false (0)"
  }
]

Answer whether protein stability index of VQSKARYTVRTFGIRRN [RPL11A] is greater than or equal to 3.
false (0)

Has HNMKAYYKKFLIEPLPT [BRR2] a recorded protein stability index greater than or equal to 3?
false (0)

Check if protein stability index >= 3 (inclusive). Item: NNWFSLPGDMLAVCDEL [SIN4]
false (0)

Please check the record PVENIWADIFAKALDGQ [RPP1A] and state if its protein stability index is at or above 3.
false (0)

Kindly determine if protein stability index recorded for LVQLKKFSDLKFILQIL [YML103C/NUP188] is above or exactly 3.
false (0)

Evaluate PNVSDKYYLEESNVNDS [NUT1] : protein stability index at minimum 3?
true (1)

====

Assay: protein stability index of a GFP-peptide fusion (yeast GPS) (PSI 1-4); higher = more stable; sorted into four equal gates, so the index is relative within each strain
Conditions: ubr1∆
MEASURED PARAMETER: protein stability index
Numbers only.

[
  {
    "PRIMARY SEQUENCE": "GVKDCQEGLITTTMLQL [SSN2]",
    "protein stability index": 2.6
  },
  {
    "PRIMARY SEQUENCE": "VRAVNTGMEPGKTSFFQ [RPP0]",
    "protein stability index": 2.42
  },
  {
    "PRIMARY SEQUENCE": "GSELVQKYVGEGARMVR [RPT1]",
    "protein stability index": 2.81
  },
  {
    "PRIMARY SEQUENCE": "LEMSTEDFVKLAPARVR [RPS15]",
    "protein stability index": 2.78
  },
  {
    "PRIMARY SEQUENCE": "HTLMSFAGEAGDTVQFA [PRE1]",
    "protein stability index": 3.22
  },
  {
    "PRIMARY SEQUENCE": "LYDRPLKPDLNKITNQG [NAS6]",
    "protein stability index": 3.4
  }
]

Provide protein stability index values for the following items, in order.
1. SGVKNDILQSLSGGGHD [CDC53]
2. AFTRKQANQVKRHSYAQ [RPS1A]
3. QHEQQKQQEQLEQQKQP [YMR153W/NUP53]
4. IIFEIEKPLVVPVKLEE [RRP6]

2.8
2.01
3.15
2.14

Your task in this section: give protein stability index for each listed record.
1. VVVSGKLRAARAKAMKF [RPS3]
2. KVEIKKVNSRDDSFFNE [PRP28]
3. RFTKFSDTLKEFKIEQN [YDL116W/NUP84]
4. ESMAYTAFQTQRTAQDR [YML031W/NDC1]

[3.28, 3.38, 1.45, 2.85]
